src = patent US10556905B2

The entries below are paired with their reported pIC50.
# assay.target: OXA-2 (Escherichia coli, UniProt P0A1V9)
# Construct: AmpC, TEM-1, KPC-2 or OXA-2 domain excluding signal peptide was amplified with PCR; made in house; host or cells: Escherichia coli BL21 (DE3), pET-28b(+)
# Sequence (P0A1V9 22-275): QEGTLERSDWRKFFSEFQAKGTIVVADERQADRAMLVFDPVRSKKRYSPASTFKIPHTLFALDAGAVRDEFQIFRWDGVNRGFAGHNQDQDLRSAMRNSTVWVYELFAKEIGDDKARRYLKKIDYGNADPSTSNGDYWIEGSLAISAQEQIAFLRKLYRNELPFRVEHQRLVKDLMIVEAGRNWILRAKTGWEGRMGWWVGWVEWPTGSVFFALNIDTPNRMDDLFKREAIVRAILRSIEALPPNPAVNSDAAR
# assay.remarks: biochemical
# Parameters: species or system P. aeruginosa
# conditions.used: OXA-2 2 nM, 100 μM nitrocefin, pre-incubation 30° C. 10 minutes; read-out: β-Lactamase inhibitory activity OXA-2 (IC50)
pIC50: −log10 of the molar value.

Solved cases (8 shown):
- O=C(NNC(=O)[C@@H]1CC[C@@H]2CN1C(=O)N2OS(=O)(=O)O)C1CCNCC1: 5.52 to 6.00
- NCc1ccc(C(=O)NNC(=O)[C@@H]2CC[C@@H]3CN2C(=O)N3OS(=O)(=O)O)cc1 (racemic): 5.00 to 5.52
- CCNCCONC(=O)[C@@H]1CC[C@@H]2CN1C(=O)N2OS(=O)(=O)O: 5.52 to 6.00
- CNCCONC(=O)[C@@H]1CC[C@@H]2CN1C(=O)N2OS(=O)(=O)O: 5.52 to 6.00
- Nc1ccc(CC(=O)NNC(=O)[C@@H]2CC[C@@H]3CN2C(=O)N3OS(=O)(=O)O)cc1: 5.00 to 5.52
- O=C(NOCC(=O)N1CCNCC1)[C@@H]1CC[C@@H]2CN1C(=O)N2OS(=O)(=O)O: 6.00 to 7.00
- C[C@@H](N)CONC(=O)[C@@H]1CC[C@@H]2CN1C(=O)N2OS(=O)(=O)O: 5.52 to 6.00
- O=C(NNC(=O)[C@@H]1CC[C@@H]2CN1C(=O)N2OS(=O)(=O)O)[C@@H]1C[C@H](CC2CC2)CCN1: 5.52 to 6.00

Now for a further compound.
What the record says about O=C(NOC1CCNCC1)[C@@H]1CC[C@@H]2CN1C(=O)N2OS(=O)(=O)O : pIC50 is 6.00 to 7.00
